Test: protein stability index of a GFP-peptide fusion (GPS, HEK-293T) (PSI 1-6); higher = more stable;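 note: 24-mer peptide tiles fused after GFP, lentivirally expressed, FACS-sorted into six equal bins by GFP/DsRed ratio, decoded by Illumina sequencing, PSI is the read-weighted mean bin number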
Conditions: treatment: DMSO; c terminus: a fixed tail appended
Lab note: compare protein stability index against 3. Equal or greater, write yes. Smaller, write no.

Entry TFQSHEPEFDYLKSLEIEEKINKI [PPP2R2C] : is its protein stability index no less than 3? yes

Entry SKFKKLMKQGGAALEGSALANGRA [DLX1] : is its protein stability index no less than 3? yes

Entry EIDSVPKTQSELASESEHIPKPQS [MIA2] : is its protein stability index no less than 3? yes

Entry SDFLTLHSIIISLVEAGAHTDMTN [FEM1B] : is its protein stability index no less than 3? no

Entry SRASAARVGQLQEALNERHSIINA [LRRC45] : is its protein stability index no less than 3? yes

Entry EQLQQILKRKNKQAFLDELESSDL [MNAT1] : is its protein stability index no less than 3? yes

Entry PAPPSDALLDLHFPSDHLGDLGDP [TFE3] : is its protein stability index no less than 3? yes

Entry DQEMARDLVERALYSMECAFHPLF [TCF25] : is its protein stability index no less than 3? no

Entry QRAFSIQTPEQYYFCYKAILEFAE [PTPN9] : is its protein stability index no less than 3? no

Entry FHKDCASRVNNASYCPHCGEESSK [EHMT1] : is its protein stability index no less than 3? yes

Entry SALSDTEIQREIGISNALHRLKLR [PPFIA4] : is its protein stability index no less than 3? yes

====

Test: protein stability index of a GFP-peptide fusion (GPS, HEK-293T) (PSI 1-6); higher = more stable
Conditions: treatment: DMSO; c terminus: a fixed tail appended
Could you please report measured protein stability index for the items listed next?
Please state the value as a number alone, without comment.

I have this sequence here, SQYIAVEAAEGRNKNEVFYQCPDQ [FBXO3] , and I need its recorded protein stability index. 4.46

I have this sequence here, VLRAEHRGFQEENKALWENNKLKL [CBY2] , and I need its recorded protein stability index. 3.83

I have this sequence here, GNQLQLNQHCLDTAFNFFKMAVSR [BRF1] , and I need its recorded protein stability index. 2.25

I have this sequence here, MLRTGLGVIRMWADEGSRNSRFQM [NETO1] , and I need its recorded protein stability index. 2.5

I have this sequence here, RDSAYQSITHYRPVSASRSSLDLS [EMD] , and I need its recorded protein stability index. 3.41

I have this sequence here, EEDRPLGGGEGHQPAGNRRGQARR [BEX3] , and I need its recorded protein stability index. 5.72

I have this sequence here, NQSVEPKKEEPEPETEAVSSSQEI [ZMYND11] , and I need its recorded protein stability index. 5.25

I have this sequence here, QKGLGGAMVWALDLDDFAGFSCNQ [CHIT1] , and I need its recorded protein stability index. 2.31

I have this sequence here, GYDHLWDETLSSSHQKCPQLGGPE [PLEKHN1] , and I need its recorded protein stability index. 4.19

I have this sequence here, DKNTLKDHMRKKQHRKINPKNREY [ZNF277] , and I need its recorded protein stability index. 3.3

I have this sequence here, YLWMCSTLALLLNFLACLASFCVE [SCAMP3] , and I need its recorded protein stability index. 3.53

I have this sequence here, AMLREKFPEFCSSPSPPVEVKIEE [INTS3] , and I need its recorded protein stability index. 4.51

I have this sequence here, MSVLWLEHDRETRMQYAPDLMKRL [KLHL14] , and I need its recorded protein stability index. 2.35

I have this sequence here, IVGNQVQGAPASSFVYVNPEDGRI [PCDHGC5] , and I need its recorded protein stability index. 3.46

I have this sequence here, LTYSTRMSQTVQRMLVAASWACAF [OR3A1] , and I need its recorded protein stability index. 3.35

I have this sequence here, REQSRLTSCLKKREEMKLKECVSI [TNFSF13B] , and I need its recorded protein stability index. 3.62

I have this sequence here, ETRQKKLEVAMEEEGLADEEKKLR [STK38L] , and I need its recorded protein stability index. 5.51

I have this sequence here, DRVVAFMDHIRIFQEQVEKLKALH [NR2F2] , and I need its recorded protein stability index. 2.28

I have this sequence here, LQQAQAQFRMAQEEARRNRLMRDM [SMG5] , and I need its recorded protein stability index. 3.89

I have this sequence here, MLNMWKVRELVDKATNVVMNYSEI [CLINT1] , and I need its recorded protein stability index. 2.4

I have this sequence here, LNDQNLCIPASSSFVYGAVPIGAS [GAN] , and I need its recorded protein stability index. 3.07

I have this sequence here, SVSLRKAERLRAELLDLKAGGFSI [MYORG] , and I need its recorded protein stability index. 2.25

I have this sequence here, PKAQSAMSPYLVPDTQALCHHLPV [SMG5] , and I need its recorded protein stability index. 3.34

I have this sequence here, EGYKDADYWLRRFEAEPLPENTNR [PI4K2A] , and I need its recorded protein stability index. 4.52

I have this sequence here, ENLEGVPSVCSENIHPQVLLPDQA [ZNF263] , and I need its recorded protein stability index. 5

I have this sequence here, TPESTKPGPVCQPPVSQSRSLFSS [ANKRD40] , and I need its recorded protein stability index. 4.46

I have this sequence here, LQMAVLVEKQADTLNVIELNVQKT [STX11] , and I need its recorded protein stability index. 2.59

====

Assay: protein stability index of a GFP-peptide fusion (GPS, HEK-293T) (PSI 1-6); higher = more stable
Conditions: treatment: MLN4924 1 uM, 8 h; c terminus: a fixed tail appended
readout.label: protein stability index
Please state the value as a number alone, without comment.

I have this sequence here, GDPRPKIVWNKKGKKVSNQRFEVI [PTPRD] , and I need its recorded protein stability index. 3.46

I have this sequence here, FKPACMSEIKNLERYMCSRFFIDF [TENT5D] , and I need its recorded protein stability index. 2.42

I have this sequence here, GFFEEKGAIFCPPCYDVRYAPSCA [PDLIM7] , and I need its recorded protein stability index. 2.58

I have this sequence here, IIISEPMGYMLFNERMLESYLHAK [CARM1] , and I need its recorded protein stability index. 2.51

I have this sequence here, APPSPRDISMEIDSPENMMRHIRF [CCDC6] , and I need its recorded protein stability index. 3.65

I have this sequence here, GCASFIYLRPQSNYSSSQDALISV [OR10K2] , and I need its recorded protein stability index. 2.54

I have this sequence here, FLLVLAVVAGDTVSTGSTDNSPTS [ADAMTSL2] , and I need its recorded protein stability index. 2.28

I have this sequence here, EHVSRALCIHTGRELRCKVFPIKH [TRIB1] , and I need its recorded protein stability index. 2.61

I have this sequence here, QCSNRIGSMKIKSSWDIDGRATKR [FBXO34] , and I need its recorded protein stability index. 3.52

I have this sequence here, DLIDVREVMERDAKDYADSIHAIF [RAB22A] , and I need its recorded protein stability index. 3.23

I have this sequence here, RLREAAALGDIREVQKLVESGVDV [ANKRD40] , and I need its recorded protein stability index. 4.19

I have this sequence here, DDMLLFDEQEKGIVTKFYQLSATG [FAN1] , and I need its recorded protein stability index. 3.46

I have this sequence here, SPQFEGPLSPPPINYNGIFSLKQE [NEUROD6] , and I need its recorded protein stability index. 4.05

I have this sequence here, QPPNAEEESGSSSASEEEDTKPKP [INTS3] , and I need its recorded protein stability index. 5.65

I have this sequence here, SEGELGGPSEPGGTHPEDHQGHSD [RHOBTB2] , and I need its recorded protein stability index. 5.49

I have this sequence here, PPGDIMFLLVQRFGELMRKLWNPR [USP39] , and I need its recorded protein stability index. 2.77

I have this sequence here, FAGGFVDFGACDGGLLTGNEKITM [KRT13] , and I need its recorded protein stability index. 2.56

I have this sequence here, QPCFFQDISMEIPQEFQKTVSTMY [SCAMP3] , and I need its recorded protein stability index. 2.64

I have this sequence here, DDYLHKDTGETSMLKRPVLLHLHQ [STEAP1] , and I need its recorded protein stability index. 3.17

I have this sequence here, IHTGERPYKCPECGKSFSRSSHLV [ZNF263] , and I need its recorded protein stability index. 3.18

I have this sequence here, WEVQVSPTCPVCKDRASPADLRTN [TRIM35] , and I need its recorded protein stability index. 3.61

I have this sequence here, PWGFRLQGGKDFNVPLSISRLTPG [PDLIM7] , and I need its recorded protein stability index. 2.66

I have this sequence here, SHQELHRELLMNHRRGLGVDSKPE [FAM107A] , and I need its recorded protein stability index. 4.57

I have this sequence here, QPGPSGAPAQRATRGFLRSPSSDL [RETREG3] , and I need its recorded protein stability index. 4.27

I have this sequence here, SPEALSLGEVAYHDYHGILVDEEE [ADD1] , and I need its recorded protein stability index. 5.54

I have this sequence here, PKAQSAMSPYLVPDTQALCHHLPV [SMG5] , and I need its recorded protein stability index. 3.38
